Just for reference, paper PMC10010643 is where these values come from.

Assay: Plasma PK, Part A single oral doses in healthy participants
Type: in vivo, human
Details: human, plasma, oral, 20 mg, single dose 20 mg (4 × 5 mg), fasted; read-out: AUC0–tlast, geometric mean (CV%)
Reported Metric: AUC(0-t) (ng·h/mL)

OC[C@H]1O[C@H](Sc2cncc(Br)c2)[C@H](O)[C@@H](n2cc(-c3cc(F)c(F)c(F)c3)nn2)[C@H]1O :: 3150

====

Assay: Plasma PK, Part B multiple oral BID doses in healthy participants
Format: in vivo, human
Settings: human, plasma, oral, 50 mg, 50 mg BID, fasted, Day 10; read-out: Tmax, median (min–max)
Reported Metric: Tmax (h)

OC[C@H]1O[C@H](Sc2cncc(Br)c2)[C@H](O)[C@@H](n2cc(-c3cc(F)c(F)c(F)c3)nn2)[C@H]1O [GB1211] :: 2.5
